Assay: aggregation and purification amounts of deglycosylated antibodies, before and after φ
Type: physicochemical
Conditions: based on 100 ml culture
In this section, each of the molecules is paired with its reported Fraction3, Before φ.
Give a bare numeral; the unit mg is implied.

Example molecules with recorded Fraction3, Before φ:
Deglyco-C2: deglycosylated clone 1 IgG; light chain CDR1 TGSSSNIGATAVT (SEQ ID NO: 3) (antibody, V domains shown) VH: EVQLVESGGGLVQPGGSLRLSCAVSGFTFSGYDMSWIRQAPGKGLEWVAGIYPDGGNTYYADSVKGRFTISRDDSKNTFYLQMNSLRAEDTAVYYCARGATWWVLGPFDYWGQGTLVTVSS VL: DIQLTQSPSSLSASVGDRVTITCTGSSSNIGATAVTWYQQKPGKAPKLLIYADSHRPSGVPSRFSGSGSGTDFTLTISSLQPEDFATYYCGAWDDSLSGYVFGQGTKVEIKR = 1.113
deglyco C1 IgG: deglycosylated clone 1 IgG; light chain CDR1 TGSSSNIGRCGVT (SEQ ID NO: 2), N32R/N33C/S34G (antibody, V domains shown) VH: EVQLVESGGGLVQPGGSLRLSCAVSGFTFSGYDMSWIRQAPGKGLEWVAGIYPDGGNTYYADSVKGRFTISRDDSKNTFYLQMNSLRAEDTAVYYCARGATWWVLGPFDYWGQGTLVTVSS VL: DIQLTQSPSSLSASVGDRVTITCTGSSSNIGRCGVTWYQQKPGKAPKLLIYADSHRPSGVPSRFSGSGSGTDFTLTISSLQPEDFATYYCGAWDDSLSGYVFGQGTKVEIKR = 0.938

# ---- query molecule ----
Incoming: # return recorded Fraction3, Before φ for input Deglyco-C4: deglycosylated clone 1 IgG; light chain CDR1 TGSSSNIGAVVVT (SEQ ID NO: 5) (antibody, V domains shown) VH: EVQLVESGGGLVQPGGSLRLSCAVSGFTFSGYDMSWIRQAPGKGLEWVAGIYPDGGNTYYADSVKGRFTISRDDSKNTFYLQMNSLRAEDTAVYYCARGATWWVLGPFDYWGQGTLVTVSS VL: DIQLTQSPSSLSASVGDRVTITCTGSSSNIGAVVVTWYQQKPGKAPKLLIYADSHRPSGVPSRFSGSGSGTDFTLTISSLQPEDFATYYCGAWDDSLSGYVFGQGTKVEIKR
Outgoing: 0.255
